Data origin, for the record: patent US20250034271A1

Target: T1, Histidine-tagged human CD40 protein (hCD40-His) (human, UniProt P25942 21-193)
T1 construct: not shown: histidine tag
T1 sequence (P25942 21-193 limits assumed): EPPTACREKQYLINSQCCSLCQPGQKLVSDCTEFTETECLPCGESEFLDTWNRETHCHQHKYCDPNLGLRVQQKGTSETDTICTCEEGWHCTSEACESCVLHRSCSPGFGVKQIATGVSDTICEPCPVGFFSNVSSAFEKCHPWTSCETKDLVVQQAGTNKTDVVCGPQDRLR
Test: SPR, Biacore T200; antibody on Protein A chip, hCD40-His injected; 1:1 fit
Property: Kd; scope: individual binders

BINDER	UNIT_LABEL	Kd
7F10-H2K3-IgG4 (antibody, V domains shown, Humanized) VH: EVQLVESGGGLVQPGGSLRLSCATSGFTFSDYYMYWVRQAPGKRLEWVAYISYGGDSTFYPDTVRGRFTISRDNAKNSLYLQMSSLKAEDTAVYYCARPAPSAHSYYLDYWGQGTLLTVSS VL: DIQMTQSTSSLSASVGDRVTITCRASQDISNYLNWYQQKPGGAVKLLIYYTSRLHSGLPSRFSGSGSGTDYTLTISSLQQEDIATYYCQQGKTLPFTFASGTKLEIK	nM	182
7F10-H3K2-IgG4 (antibody, V domains shown, Humanized) VH: EVKLVESGGGLVQPGGSLRLSCATSGFTFSDYYMYWVRQAPEKRLEWVAYISYGGDSTFYPDTVRGRFTISRDNAKNALYLQMSRLKAEDTAVYYCARPAPSAHSYYLDYWGQGTTLTVSS VL: DIQMTQSPSSLSASVGDRVTITCRASQDISNYLNWYQQKPGGAVKLLIYYTSRLHSGLPSRFSGSGSGTDYTFTISSLQPEDIATYYCQQGKTLPFTFASGTKLEIK	nM	380
6A7-H1K1-IgG4 (antibody, V domains shown, Humanized) VH: QVQLVQSGAEVKKPGASVKVSCKASGYTFISYYIYWVRQAPGQGLEWMGGINPRNGGTNFNEKFKSRVTLTVDTSISTAYMELSRLRSEDTAVYYCARHGNGVYWGQGTTVTVSS VL: DVVMTQSPLSLPVTLGQPASISCRSSQSLLHSNGNTYLHWFQQRPGQSPRHLIYQVSNRFSGVPDRFSGSGSGTDFTLKISRVEAEDVGVYYCSQTTHVPWTFGGGTKVEIK	nM	280
